- targetOfAssay: Protein arginine N-methyltransferase 1 (Homo sapiens, UniProt Q99873)
- Sequence (Q99873 whole entry): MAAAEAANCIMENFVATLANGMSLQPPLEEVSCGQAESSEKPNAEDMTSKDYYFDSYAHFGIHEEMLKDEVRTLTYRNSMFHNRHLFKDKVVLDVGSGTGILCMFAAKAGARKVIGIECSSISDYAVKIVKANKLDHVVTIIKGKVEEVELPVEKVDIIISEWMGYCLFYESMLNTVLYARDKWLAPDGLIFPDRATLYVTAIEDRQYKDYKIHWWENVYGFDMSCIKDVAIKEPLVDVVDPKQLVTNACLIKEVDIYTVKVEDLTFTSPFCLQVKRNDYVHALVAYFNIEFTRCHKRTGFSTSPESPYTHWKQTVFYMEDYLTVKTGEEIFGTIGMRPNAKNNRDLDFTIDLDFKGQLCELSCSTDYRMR
- testDescription: Inhibition of recombinant human His-tagged PRMT1 expressed in Escherichia coli BL21 (DE3) using biotin-labeled histone H4-20 as substrate incubated for 8 mins in presence of [3H]-SAM cofactor by scintillation proximity assay
endpointName: pIC50
Remember, pIC50 is on a log scale: it is -log10 of the molar concentration.

## Input For the compound `N=C(N)c1ccc2[nH]c(/C=C/c3cc4cc(C(=N)N)ccc4o3)cc2c1` , give its measured pIC50 value.
## Output 5.11

## Input For the compound `C(=C/c1cc2ccc(C3=NCCN3)cc2o1)/c1cc2ccc(C3=NCCN3)cc2[nH]1` , give its measured pIC50 value.
## Output 5.12

## Input For the compound `C1=C(/C=C/c2ccc3cc(C4=NCCN4)[nH]c3c2)Cc2cc(C3=NCCN3)ccc21` , give its measured pIC50 value.
## Output 5.30

###

- targetOfAssay: UniProt:Q9NR22
- Sequence (Q9NR22 whole entry): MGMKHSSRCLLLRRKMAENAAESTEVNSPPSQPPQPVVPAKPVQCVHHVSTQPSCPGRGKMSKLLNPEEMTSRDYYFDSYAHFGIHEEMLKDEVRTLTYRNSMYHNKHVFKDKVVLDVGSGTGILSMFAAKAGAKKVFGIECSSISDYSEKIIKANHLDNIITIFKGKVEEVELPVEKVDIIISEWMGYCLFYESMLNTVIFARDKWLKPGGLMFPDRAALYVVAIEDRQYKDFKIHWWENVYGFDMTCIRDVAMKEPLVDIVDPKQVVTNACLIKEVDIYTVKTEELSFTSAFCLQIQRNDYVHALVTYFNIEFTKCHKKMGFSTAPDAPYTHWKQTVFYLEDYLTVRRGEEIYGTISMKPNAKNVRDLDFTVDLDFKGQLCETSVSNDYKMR
- testDescription: Inhibition of recombinant His-tagged human PRMT8 expressed in Escherichia coli BL21 (DE3) using biotin-labeled histone H4-20 peptide as substrate incubated for 8 mins in presence of [3H]-SAM cofactor by scintillation proximity assay
endpointName: IC50 (µM)
Write the number in µM without appending the unit.

CNC(=N)N/N=C(/C)c1ccc2oc3ccc(/C(C)=N/NC(=N)NC)cc3c2c1: 17.6
N=C(N)c1ccc(Nc2ccc(-c3cc4ccc(C(=N)N)cc4[nH]3)cc2)cc1: 8.2
CNCC(=O)NC1=CC2C(=O)c3ccc(NC(=O)CNC)cc3C(=O)C2C=C1 (stereo not given): 43.7
c1cc2cc(-c3ccc4oc(C5=NCCN5)cc4c3)[nH]c2cc1C1=NCCN1: 60.1

## Input Report IC50 under test system UniProt:Q9NR22 for `Nc1nc(N)c2nc3c(ccc4ccccc43)nc2n1` .
## Output 167

###

- targetOfAssay: Protein arginine N-methyltransferase 1 (Homo sapiens, UniProt Q99873)
- testDescription: Inhibition of recombinant human His-tagged PRMT1 expressed in Escherichia coli BL21 (DE3) using biotin-labeled histone H4-20 as substrate incubated for 8 mins in presence of [3H]-SAM cofactor by scintillation proximity assay
Documented pIC50 across a set of molecules
Remember, pIC50 is on a log scale: it is -log10 of the molar concentration.

Reference set, count: 6
N=C(N)c1ccc(-c2ccc(-c3ccc(C(=N)N)cc3)o2)cc1 [FURAMIDINE]: 5.05
C(=C\c1cc2ccc(C3=NCCN3)cc2[nH]1)/c1cc2ccc(C3=NCCN3)cc2[nH]1: 5.21
N=C(N)c1ccc(/C=C/c2cc3cc(C(=N)N)ccc3o2)cc1: 5.00
N=C(N)c1ccc2[nH]c(/C=C/c3cc4ccc(C(=N)N)cc4o3)cc2c1: 5.12
N=C(N)c1ccc2sc(/C=C/c3cc4ccc(C(=N)N)cc4o3)cc2c1: 4.78
N=C(N)c1ccc(Nc2ccc(-c3cc4ccc(C(=N)N)cc4[nH]3)cc2)cc1: 5.59

API: the following record is the query input.
## Input Report pIC50 under test system Protein arginine N-methyltransferase 1 (Homo sapiens, UniProt Q99873) for `C(=C/c1cc2ccc(C3=NCCN3)cc2o1)/c1cc2cc(C3=NCCN3)ccc2[nH]1` .
## Output 5.10

Data provenance is ChEMBL document CHEMBL4680065.
